Molecular target: T1, human 4-1BB, full length, on transfected cells (human, UniProt Q07011 24-255)
T1 construct: whole, on cells; also called CHOK1-h4-1BB
T1 sequence (Q07011 24-255): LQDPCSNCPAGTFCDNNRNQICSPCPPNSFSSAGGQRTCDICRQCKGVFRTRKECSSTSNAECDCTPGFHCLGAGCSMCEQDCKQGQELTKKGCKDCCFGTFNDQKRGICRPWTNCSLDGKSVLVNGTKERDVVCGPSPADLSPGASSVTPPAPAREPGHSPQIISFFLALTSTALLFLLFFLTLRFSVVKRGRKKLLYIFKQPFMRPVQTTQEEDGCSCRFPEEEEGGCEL
Experiment: FACS on CHOK1-h4-1BB cells, Alexa 488 secondary antibody, average fluorescence intensity
TEST_READOUT: EC50 (read off the curve)

// field: EC50 (read off the curve); key: 118F3A2 (antibody, V domains shown) VH: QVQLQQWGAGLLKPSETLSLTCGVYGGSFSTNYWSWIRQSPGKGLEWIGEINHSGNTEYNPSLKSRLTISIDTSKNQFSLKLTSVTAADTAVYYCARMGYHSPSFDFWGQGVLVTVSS VL: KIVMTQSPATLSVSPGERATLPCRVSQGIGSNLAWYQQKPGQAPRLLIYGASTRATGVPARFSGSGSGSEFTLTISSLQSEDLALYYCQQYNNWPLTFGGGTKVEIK ; value = ~0.05 µg/mL

These measurements were taken from patent US20200347144A1.
